Recorded In vitro activity (%) compared with native peptide: vs GLP-1, one value per entry.
Molecular target: human GLP-1 receptor (human, UniProt P43220 24-463)
Assay: cell-based or functional assay
Positions of bridges follow the written chain, without caps; N, C: chain ends. Non-standard residues stand in square brackets, D forms with d. No end group written: not given here. Aib = CC(C)(N)C(=O)O
Quick reminder: number only, in %, skip the unit.

Some binders with recorded In vitro activity (%) compared with native peptide: vs GLP-1:
BINDER	REPORTED_VALUE
H[Aib]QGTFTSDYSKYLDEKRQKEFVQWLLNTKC (bridge 16-20; not fully specified) [triple agonist of SEQ ID NO: 58]	39.1
H[Aib]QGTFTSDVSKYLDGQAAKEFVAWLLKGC (not fully specified) [triple agonist of SEQ ID NO: 7]	13.7

Now consider a different binder.
Endpoint output: In vitro activity (%) compared with native peptide: vs GLP-1 of H[Aib]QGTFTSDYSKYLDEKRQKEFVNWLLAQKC (bridge 16-20; not fully specified) [triple agonist of SEQ ID NO: 34] . Value? 19.1
